# Test system: NCI-H520
# EXPERIMENT NOTES: relative viability (nuclei count vs DMSO), 5 days (fraction); higher = more cells survive
# MEASUREMENT PARAMETERS: first compound 0.253 µM
READOUT NAME: relative viability
One number for each entry.

Answered cases to consult:
>  <MOLECULE>
C=C1C(=O)O[C@@H](CCCCCCCC)[C@@H]1C(=O)O [C-75] + C[C@@H](Oc1cc(-c2cnn(C3CCNCC3)c2)cnc1N)c1c(Cl)ccc(F)c1Cl [Crizotinib] (partner 1 µM)

>  <RECORDED RESULT>
0.841

$$$$
>  <MOLECULE>
Oc1nc(-c2ccc(C(F)(F)F)cc2)nc2c1CSCC2 [XAV939] + CC1(C)CCC(c2ccc(Cl)cc2)=C(CN2CCN(c3ccc(C(=O)NS(=O)(=O)c4ccc(N[C@H](CCN5CCOCC5)CSc5ccccc5)c(S(=O)(=O)C(F)(F)F)c4)cc3)CC2)C1 [Navitoclax] (partner 0.5 µM)

>  <RECORDED RESULT>
0.988

$$$$
>  <MOLECULE>
C=C1C(=O)O[C@@H](CCCCCCCC)[C@@H]1C(=O)O [C-75] + CC1(C)CCC(c2ccc(Cl)cc2)=C(CN2CCN(c3ccc(C(=O)NS(=O)(=O)c4ccc(N[C@H](CCN5CCOCC5)CSc5ccccc5)c(S(=O)(=O)C(F)(F)F)c4)cc3)CC2)C1 [Navitoclax] (partner 0.5 µM)

>  <RECORDED RESULT>
1.24

$$$$
>  <MOLECULE>
Oc1nc(-c2ccc(C(F)(F)F)cc2)nc2c1CSCC2 [XAV939] + COc1cccc2cc(-c3nc([C@H]4CC[C@H](C(=O)O)CC4)n4ncnc(N)c34)[nH]c12 [OSI-027] (partner 0.5 µM)

>  <RECORDED RESULT>
0.225

$$$$
>  <MOLECULE>
C=C1C(=O)O[C@@H](CCCCCCCC)[C@@H]1C(=O)O [C-75] + Cc1cc(Nc2cc(N3CCN(C)CC3)nc(Sc3ccc(NC(=O)C4CC4)cc3)n2)n[nH]1 [Tozasertib] (partner 0.1 µM)

>  <RECORDED RESULT>
0.393

$$$$

Would you kindly look at the next entry?
Data request: Fill in: relative viability of Oc1nc(-c2ccc(C(F)(F)F)cc2)nc2c1CSCC2 [XAV939] + N=C(N)NC(=N)NCCc1ccccc1 [Phenformin] (partner 250 µM) is ___
Data returned: 0.51
